self-cleavage values, listed per item
B1: OR4K15 (parent)
chain: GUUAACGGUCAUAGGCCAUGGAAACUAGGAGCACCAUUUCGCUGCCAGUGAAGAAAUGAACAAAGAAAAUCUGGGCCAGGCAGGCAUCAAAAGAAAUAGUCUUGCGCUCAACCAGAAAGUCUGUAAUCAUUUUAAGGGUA

Variants of: B1
Assay: self-cleavage, relative activity (ratio to wild type); higher = more cleavage; in vitro, sequencing; the parent is a self-cleaving ribozyme
Write the value as a bare number.

- mutationCode: "A27G A90U"
  assayReadout: "self-cleavage"
  reported: 1
- mutationCode: "A59G A92G"
  assayReadout: "self-cleavage"
  reported: 1.22
- mutationCode: "U102C A117U"
  assayReadout: "self-cleavage"
  reported: 0.83
- mutationCode: "A30U U37C"
  assayReadout: "self-cleavage"
  reported: 0.84

Give self-cleavage for the following variant: A68G C101A
0.19

Output self-cleavage of U3C A78U
0.51

Return self-cleavage (reported value) for this variant: A62G U133A
1.51

Please look at this variant and report its self-cleavage: C10A A90G
1.02

Specify reported self-cleavage for the variant shown: U72C A89G
0.24

Respond only with self-cleavage recorded for C101U C105A
0.01

Return self-cleavage (reported value) for this variant: A68G A86U
1.51

Supply reported self-cleavage belonging to this variant: A67G A116G
0.71

Specify self-cleavage for U12A A110U and stop.
1.63
